assay: Stability experiments under 40° C.±2° C. and 75% R.H±5% R.H (accelerated test); assay type: physicochemical; conditions: month 2; 40° C./75% R.H
Listed here: items and their measured Content.
Value expressed in %; do not type the unit.

Entry under review: CC[C@@H]([C@H](C)OP(=O)(O)O)n1ncn(-c2ccc(N3CCN(c4ccc(OC[C@@H]5CO[C@@](Cn6cncn6)(c6ccc(F)cc6F)C5)cc4)CC3)cc2)c1=O.N=C(N)NCCC[C@H](N)C(=O)O [Comparative Example 5, Posaconazole Phosphate Monoarginine Salt] . Reported Content?
99.60

# Content lookup, item CC[C@@H]([C@H](C)OP(=O)(O)O)n1ncn(-c2ccc(N3CCN(c4ccc(OC[C@@H]5CO[C@@](Cn6cncn6)(c6ccc(F)cc6F)C5)cc4)CC3)cc2)c1=O [Example 3]
99.87

--- query ---
Tell me the measured Content of CC[C@@H]([C@H](C)OP(=O)([O-])[O-])n1ncn(-c2ccc(N3CCN(c4ccc(OC[C@@H]5CO[C@@](Cn6cncn6)(c6ccc(F)cc6F)C5)cc4)CC3)cc2)c1=O.C[N+](C)(C)CCO.C[N+](C)(C)CCO [Comparative Example 1, Posaconazole Phosphate Bicholinate] , please.
99.84
